# ASSAY SYSTEM: T1, Anti-CD28 Fab (SEQ ID NOs: 202, 203)
# T1 construct: biotinylated and captured on neutravidin coated plates in the phage ELISA
# T1 sequence (VH, as listed by the source, chain 1 of 2): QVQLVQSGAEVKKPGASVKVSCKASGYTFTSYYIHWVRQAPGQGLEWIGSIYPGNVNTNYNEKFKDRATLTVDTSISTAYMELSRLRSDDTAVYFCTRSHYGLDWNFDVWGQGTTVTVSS
# T1 sequence (VL, as listed by the source, chain 2 of 2): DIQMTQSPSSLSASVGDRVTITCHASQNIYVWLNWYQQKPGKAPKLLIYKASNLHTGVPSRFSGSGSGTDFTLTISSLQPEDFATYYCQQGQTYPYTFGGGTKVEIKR
# PROTOCOL: phage ELISA on captured Fab, wells pre-incubated with CD28 antigen (competitor: CD28);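 note: bound clonal phage detected with an HRP-linked anti-M13 antibody, compared against wells that received blocking buffer alone without CD28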
# reported Anti-CD28 Fab signal in the presence of CD28; entries follow
Answer field: number only, no words.

Worked cases, answers included:
YCEGHSPQYMQKCL [Phage-202]; 0.06
YCAGHLPLYMEKCL [Phage-191]; 0.06

Dear colleague, please send me the reported Anti-CD28 Fab signal in the presence of CD28 for YCEGHAAEYMMKCL [Phage-263] when you can. 0.07

Dear colleague, please send me the reported Anti-CD28 Fab signal in the presence of CD28 for YCEGHSLEYIGKCL [Phage-186] when you can. 0.06

Dear colleague, please send me the reported Anti-CD28 Fab signal in the presence of CD28 for YCDGHASEYMMKCL [Phage-237] when you can. 0.06

Dear colleague, please send me the reported Anti-CD28 Fab signal in the presence of CD28 for YCEGHLPEYMSKCL [Phage-181] when you can. 0.07

Dear colleague, please send me the reported Anti-CD28 Fab signal in the presence of CD28 for YCEGHLPQYLAKCL [Phage-190] when you can. 0.1

Dear colleague, please send me the reported Anti-CD28 Fab signal in the presence of CD28 for YCAGHLPEYIDKCL [Phage-219] when you can. 0.08

Data credit: patent US20260274955A1
